Tested on: IGROV-1
Assay: NCI tumour cell line growth inhibition, 48 h
Active and inactive are the calls of the source. Cut-off read from the data, not from the text of the source: active = GI50 up to about 1.1 µM and inactive = higher.
Labels: active, inactive

{"compound": "COC(=O)C1N=CSCC1(C)O (stereo not given)", "tgt": "IGROV-1", "group-label": "inactive"}
{"compound": "COc1c(C=O)c2c(c(OC)c1OC)-c1ccc(OC)c(=O)cc1[C@@H](NC(C)=O)CC2", "tgt": "IGROV-1", "group-label": "active"}
{"compound": "COc1ccc2c3c1O[C@H](c1ccc(O)cc1)[C@H]3[N+](C)(C)CC2", "tgt": "IGROV-1", "group-label": "inactive"}
{"compound": "COc1ccc(CC2C(=O)NC(C)C(=O)N(C)C3Cc4ccc(cc4)Oc4cc(ccc4O)CC(C(=O)NC(C)C(=O)NC(C)C(=O)N2C)N(C)C3=O)cc1 (stereo not given)", "tgt": "IGROV-1", "group-label": "active"}
{"compound": "CCOc1ccc(/N=C\\c2cc(OC)c(OC)c(OC)c2)cc1", "tgt": "IGROV-1", "group-label": "inactive"}
{"compound": "COc1ccc(C(=O)OC2C=COC(C)C2OC(=O)c2ccc(OC)cc2)cc1 (stereo not given)", "tgt": "IGROV-1", "group-label": "inactive"}
{"compound": "O=C(CC(=O)c1cccc2ccccc12)C(=O)Nc1nccs1", "tgt": "IGROV-1", "group-label": "inactive"}
{"compound": "O=S(=O)(c1ccccc1)n1c2cc3cccnc3nc2c2cccnc21", "tgt": "IGROV-1", "group-label": "inactive"}
{"compound": "Cc1[nH]c2ccccc2c1-c1n[nH]c(=O)c2ccccc12", "tgt": "IGROV-1", "group-label": "inactive"}
{"compound": "CC(C)(C)OC(=O)NCC(=O)N1CCN(C(=O)CNC(=O)OC(C)(C)C)CC1", "tgt": "IGROV-1", "group-label": "inactive"}

---

Tested on: OVCAR-3
Assay: NCI tumour cell line growth inhibition, 48 h
Calls of active or inactive are those of the source. No stated cut-off is given here; in the data, active = GI50 up to about 1.1 µM and inactive = higher.
Labels: true (1) = active, false (0) = inactive

{"compound": "CN1C(NN)=NS(=O)(=O)c2ccccc21", "group-label": "false (0)"}
{"compound": "CC1(C)CC2=NO[Se]3=C2C(=NO3)C1", "group-label": "false (0)"}
{"compound": "CC(C)C(C(=O)O)N(CC1(O)OCC(O)C(O)C1O)N=O (stereo not given)", "group-label": "false (0)"}
{"compound": "COc1ccc2c(c1)C1=NCCN(CCO)c3ccc([N+](=O)[O-])c(c31)N2", "group-label": "true (1)"}
{"compound": "COc1cc(/C=C2/C(=O)N(C(=O)OCC(C)C)C(Cc3cc(OC)c(OC)c(C)c3OC)C(=O)N2Cc2ccccc2)c(OC)c(C)c1OC (stereo not given)", "group-label": "false (0)"}
{"compound": "CC(=O)OC(Cn1cncn1)(Cn1cncn1)c1ccc(Cl)cc1Cl", "group-label": "false (0)"}
{"compound": "CC1=CCCC2C1(C)CCC(C)C2(C)Cc1cc(O)ccc1O (stereo not given)", "group-label": "false (0)"}
{"compound": "Cc1ncc([N+](=O)[O-])n1CCNC(=O)Cn1ccnc1[N+](=O)[O-]", "group-label": "false (0)"}
{"compound": "C=C(C)C1CCC2=CC(CC3(C)OC3C3=CC(C(=O)OC)=C(C1)O3)OC2=O (stereo not given)", "group-label": "false (0)"}
{"compound": "CC(NC(=O)C(=O)N/N=C1\\C[C@@H](c2ccccc2)Nc2ccccc21)c1ccccc1 (stereo not given in full)", "group-label": "false (0)"}
